Tested system: G-protein coupled receptor 151 (Homo sapiens) (UniProt Q8TDV0)
Sequence (Q8TDV0 whole entry, looked up): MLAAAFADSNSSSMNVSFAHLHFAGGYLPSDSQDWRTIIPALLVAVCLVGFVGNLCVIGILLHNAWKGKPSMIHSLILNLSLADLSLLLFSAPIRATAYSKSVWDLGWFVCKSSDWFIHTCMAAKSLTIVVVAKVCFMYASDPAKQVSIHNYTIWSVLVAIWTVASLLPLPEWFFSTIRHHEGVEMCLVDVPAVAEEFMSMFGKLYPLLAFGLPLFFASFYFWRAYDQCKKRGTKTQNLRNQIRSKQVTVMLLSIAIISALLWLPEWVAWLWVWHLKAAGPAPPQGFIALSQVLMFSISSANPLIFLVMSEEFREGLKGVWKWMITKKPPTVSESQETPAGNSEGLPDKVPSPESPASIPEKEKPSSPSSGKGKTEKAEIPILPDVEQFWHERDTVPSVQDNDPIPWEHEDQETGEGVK
Assay protocol: GPR151 activators, triplicate retest, confirmation, cell-based, PathHunter beta-arrestin, luminescence, set 2 (AID 1508608)
Settings: GPR151 PathHunter beta-arrestin cells, 90 min, at 11.2 µM; 100% = signal from added EA reagent unless noted
About 20 (0.9%) of roughly 2,300 compounds were called active.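 The calls were made as follows: active = mean activation across replicates above 26.72%, the hit cutoff set for this confirmation screen; inactive = the rest.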 Shown is part of a subset that was picked to be rich in actives.
Answer with one of the outcomes given here: active, inactive

Query: Tell me the assay call for CCCCn1c(C)c(C(=O)OCC)c2cc(OC(=O)CCC)c3ccccc3c21 please.
Reply: inactive

Query: Tell me the assay call for CC[n+]1c(/C=C/C=C2\N(C)c3ccccc3C2(C)C)n(-c2ccccc2)c2ccc(C)cc21 please.
Reply: inactive

Query: Tell me the assay call for O=C(Nc1ccc(Cl)cc1C(=O)c1ccccc1)c1cc([N+](=O)[O-])ccc1Cl please.
Reply: inactive

Query: Tell me the assay call for CCn1c(/C=C/C=C2\N(C)c3ccccc3C2(C)C)[n+](Cc2ccccc2)c2ccccc21 please.
Reply: active
